System: UACC-257 melanoma
measurement.protocol: NCI-60 one-dose screen, 48 h
condition.label: 10 µM unless noted
The panel holds about 83,000 compounds, 20% with a hit somewhere; the sample as a whole holds those more often. Active and inactive are the calls of the source. The calls were made as follows: active = growth percent below 10; inactive = the rest.
Classes used: 1 (active), 0 (inactive)

INSERT INTO results (molecule, class) VALUES
  ('C=CC(=O)N1CCN(c2ccc3cccc(NC(=O)c4cnc(C)cn4)c3n2)CC1', 0),
  ('O=P(O)(O)OCC1OC(n2cnc3c(NCc4ccccc4)ncnc32)C(O)C1O (stereo not drawn)', 0),
  ('Fc1ccc(CNc2c3ccccc3nc3ccccc23)cc1', 0),
  ('COCCCOc1cc(C[C@@H](C[C@H](N)[C@@H](O)C[C@H](C(=O)NCC(C)(C)C(N)=O)C(C)C)C(C)C)ccc1OC', 0),
  ('CCC(C)Nc1ccc(NC(C)CC)cc1 (stereo not drawn)', 0),
  ('CSCCC(NC(=O)c1ccccc1)C(=O)N/N=C1\S/C(=C/c2ccc(Cl)cc2)C(=O)N1C (stereo not drawn)', 0),
  ('Clc1nn2c(Cn3cnc4c(NCc5ccccc5)ncnc43)nnc2c2ccccc12', 0),
  ('CCCCCCCCn1ccc2cc(NC(=O)Cn3cc(CN4CCC(C)CC4)nn3)ccc21', 1),
  ('COc1cc(N2C(=O)[C@H](c3ccccc3)C2c2ccc(SC)cc2)cc(OC)c1OC (stereo partly drawn)', 0),
  ('O[C@@H](c1cc(C(F)(F)F)nc2c(C(F)(F)F)cccc12)[C@H]1CCCCN1', 0),
  ('COc1cccc(C(=O)OCC(O)C(=O)NC23CC4CC(CC(C4)C2)C3)c1 (stereo not drawn)', 0),
  ('CC1(C)C2CC=C(/C=N/NC(=O)C3CCC(=O)N3)C1C2 (stereo not drawn)', 0),
  ('COc1ccc2nc3cc(Cl)ccc3c(NCCN)c2c1', 0),
  ('C=C(C)[C@@H]1CC[C@]2(CO)CC[C@]3(C)[C@H](CC[C@@H]4[C@@]5(C)CCC(NCCc6ccc(O)cc6)C(C)(C)[C@@H]5CC[C@]43C)[C@@H]12 (stereo partly drawn)', 1),
  ('CC(C)=CC(=O)N[C@@H]1CC2CCC3C(CC[C@@]4(C)C3CC[C@@H]4C(C)N(C)C)[C@@]2(C)C[C@@H]1O (stereo partly drawn)', 0),
  ('CN1CCN(Cc2ccc(NC(=O)c3cncc(C#Cc4cnn5ccccc45)c3)cc2C(F)(F)F)CC1', 0),
  ('O=c1nc(Nc2nc3ccccc3s2)[nH]c(=O)c2ccccc12', 0),
  ('Cc1nc2sc(C(=O)Nc3cccc(Cl)c3)c(N)c2cc1C(O)c1ccccc1 (stereo not drawn)', 0),
  ('Cc1cc(C)cc(Nc2ccc([N+](=O)[O-])c(NCCN3CCOCC3)n2)c1', 0),
  ('COC(=O)/C=C1/SC(=Nc2cccc(Cl)c2)N(CCc2c[nH]c3ccc(O)cc23)C1=O', 0),
  ('CCOC(=O)c1ccc2c(c1)c1c(C)c3ccncc3c(C)c1n2C', 1),
  ('CCN1C(=O)N(CC)C2C1NN=c1s/c(=C3\C(=O)N(CCc4ccccc4)c4ccccc43)c(=O)n12 (stereo not drawn)', 0),
  ('CC1(C)O[C@H]2OC3CCC(=O)CC3(O)[C@H]2O1 (stereo partly drawn)', 0),
  ('O=C(Cn1cc(CN2C(=O)c3ccccc3S2(=O)=O)nn1)Nc1cccc(Cl)c1', 0),
  ('CCn1cc(C(=O)NN=C2CCCCCC2)c(=O)c2ccc(C)nc21', 0),
  ('CCCCCCOC(=O)CC1=C(C)/C(=C/c2[nH]c(-c3ccc[nH]3)cc2OC)N=C1C', 1),
  ('CC(=O)N/C(=C1/OC(C(O)C(O)C(O)CO)CN1C)[P+](c1ccccc1)(c1ccccc1)c1ccccc1 (stereo not drawn)', 0),
  ('CN(C)c1ccc(C(=NO)c2ccc(N(C)C)cc2)cc1', 0),
  ('CCOC(=O)C1CCN(c2ccc(N3C[C@@H](CNCc4ccc(C(=N)N)cc4)OC3=O)cc2)CC1', 0),
  ('CC1(C)CC2=C3C=C[C@@H]4[C@@]5(C)CC[C@H](O)C(C)(C)[C@@H]5CC[C@@]4(C)[C@]3(C)CC[C@@]2(C(=O)O)CC1=O', 0),
  ('C=C1C(=O)O[C@H]2[C@H]1CC/C(Cn1cc(-c3cc(C(F)(F)F)cc(C(F)(F)F)c3)nn1)=C\CC[C@@]1(C)O[C@@H]21', 1),
  ('Cn1cccc1/C=C1\C(=O)Nc2ccccc21', 0),
  ('CCCn1c(=S)sc2c1nc(C)n1c(Nc3ccccc3)nnc21', 0),
  ('CCOC(=O)N1CCN(S(=O)(=O)c2oc(-c3ccc(Cl)cc3)nc2C#N)CC1', 0),
  ('CCOC(=O)c1c(NC(=O)c2ccc(C(C)(C)C)cc2)sc2cc(O)ccc12', 0),
  ('COc1cc(C2=NN(C(C)=O)C(c3ccc(N(C)C)cc3)C2)cc(OC)c1OC (stereo not drawn)', 0),
  ('COc1ccc(Nc2ncccc2NC(=O)c2cn(Cc3cccc(Oc4ccccc4)c3)nn2)cc1OC', 0),
  ('C=CCCC(=O)N1C=CC(=O)[C@H](O)[C@@H]1/C=C/c1ccccc1', 0);

====

Reported growth values for a set of compounds
Test system: SN12C renal
measurement.protocol: NCI-60 one-dose screen, 48 h (100 = growth as untreated, 0 = no growth, -100 = all killed)
condition.label: 10 µM unless noted
About 83,000 compounds went through this panel and 20% of them were active in at least one assay; those are over-represented in the sample as a whole.
reported.property: growth (%)

INSERT INTO assay_data (compound, value_measured) VALUES
  ('CN1CCN(Cc2ccc(NC(=O)c3cncc(C#Cc4cncc5ncccc45)c3)cc2C(F)(F)F)CC1', 21.3),
  ('C[C@@H]1O[C@@H](O[C@@H]2C[C@H](c3ccc4c(c3O)C(=O)C3=C(C4=O)[C@@]4(O)C(=O)C[C@](C)(O)C[C@@]4(O)C=C3)O[C@H](C)[C@H]2O)C[C@H](O)[C@@H]1O', 94.2),
  ('CN1CCN(c2ccc(NC(=O)c3cncnc3Nc3ccc4c(ccn4Cc4cccc(F)c4)c3)cc2)CC1', 71.5),
  ('CCSC1=CC(=O)c2ccccc2C1=O', 82.8),
  ('CCCCCCCCCCCCCCCCCCOc1ccccc1CC(=O)NCC[N+]1(C)CCOCC1', 40.5),
  ('CN(C)c1ccc(C(=NO)c2ccc(N(C)C)cc2)cc1', 45.5),
  ('Cc1c2ccccc2nc2c1ccc1cccnc12', 88.7),
  ('CCOc1ccc(/C=N\N=C\c2ccc(OCC)cc2)cc1', 80.4),
  ('Cc1ccc2[nH]c(-c3ccc(S(C)(=O)=O)cc3)c(/C=N/N=C(N)N)c2c1', 56.9),
  ('CCN(CC)c1ccc(N2C(=O)/C(=C/c3cccs3)SC2=S)cc1', 91.5),
  ('Cn1c(=O)c2c(nc(NC3=NS(=O)(=O)c4ccccc43)n2Cc2ccccc2)n(C)c1=O', 93),
  ('S=c1ssnc1-c1cccs1', 106),
  ('O=C(CBr)CN1C(=O)c2ccccc2C1=O', 109),
  ('COc1cc(N2C(=O)[C@H](c3ccccc3)C2c2ccc(SC)cc2)cc(OC)c1OC (stereo partly specified)', 24.3),
  ('COc1ccc(Nc2ncc(C(N)=O)c(NCCCNC(=O)C3CCC3)n2)cc1', 30.9),
  ('C=CC1(C)C(O[Si](C)(C)C(C)(C)C)CC2C3OC(=O)NC31c1cccc3c1[C@H](C(=O)N3C)C2(C)C (stereo partly specified)', 50.2),
  ('O=C1NC(=O)c2c1c1c3ccccc3[nH]c1c1oc3ccc(F)cc3c21', 74.6),
  ('CC1(C)OC(=O)C(=Cc2cccc(Br)c2)C(=O)O1', 101),
  ('COc1cc(C2Cc3ncccc3-c3[nH]c(=O)c4cccnc4c32)cc(OC)c1OC (stereo unspecified)', 39.8),
  ('Brc1ccc(-c2cnc3nonc3n2)cc1', 96.1),
  ('CCN1C(=O)N(CC)C2C1NN=c1s/c(=C3\C(=O)N(CCc4ccccc4)c4ccccc43)c(=O)n12 (stereo unspecified)', 17.8);

====

Tested on: OVCAR-8 ovarian
measurement.protocol: NCI-60 one-dose screen, 48 h (100 = growth as untreated, 0 = no growth, -100 = all killed)
condition.label: 10 µM unless noted
The panel holds about 83,000 compounds, 20% with a hit somewhere; the sample as a whole holds those more often. Calls of active or inactive are those of the source. How the source made its calls: active means growth percent below 10; inactive means the rest.
Reported growth values for a set of compounds
reported.property: growth

INSERT INTO measurements (compound, tgt, reported_property, value_measured) VALUES
  ('S=c1ssnc1-c1cccs1', 'OVCAR-8 ovarian', 'growth', '113% (inactive)'),
  ('CCN(CC)CCN(CCN(CC)CC)c1ccccc1', 'OVCAR-8 ovarian', 'growth', '91.4% (inactive)'),
  ('CC1(C)CCC(S(=O)(=O)c2ccc3c(c2)/C(=N\O)c2cc(S(=O)(=O)N4CCN(c5ccc(F)cc5O)CC4)ccc2-3)CC1', 'OVCAR-8 ovarian', 'growth', '-71.7% (active)'),
  ('COc1cc(OC)cc(C2C(C#N)=C(N)Oc3c2ccc2ccc(O)cc32)c1 (stereo unspecified)', 'OVCAR-8 ovarian', 'growth', '18.1% (inactive)'),
  ('COc1ccc(C(c2cc(OC)c(OC)c(OC)c2)N2CCN(Cc3ccccc3)CC2)cc1 (stereo unspecified)', 'OVCAR-8 ovarian', 'growth', '92.6% (inactive)'),
  ('Cn1ccnc1C(=O)/C=C/c1ccc(C(=O)Nc2ccc(F)cc2)cc1', 'OVCAR-8 ovarian', 'growth', '18.3% (inactive)');
